Field: Concentration of Darolutamide in saturated solution. Provide a value for each of the compounds that follow.
Measurement Setup: 5 min, pH 7.5
Lab book: enter the figure in mg/mL, no units written.

Request: Look up Concentration of Darolutamide in saturated solution of CC(O)c1cc(C(=O)N[C@@H](C)Cn2ccc(-c3ccc(C#N)c(Cl)c3)n2)[nH]n1 (some centres unmarked) [Comparative example 2, darolutamide] and report it.
Result: 0.022

Request: Look up Concentration of Darolutamide in saturated solution of CC(O)c1cc(C(=O)N[C@@H](C)Cn2ccc(-c3ccc(C#N)c(Cl)c3)n2)[nH]n1 (single isomer, unassigned) [Example 4, darolutamide] and report it.
Result: 0.157

Request: Look up Concentration of Darolutamide in saturated solution of CC(O)c1cc(C(=O)N[C@@H](C)Cn2ccc(-c3ccc(C#N)c(Cl)c3)n2)[nH]n1 (single isomer, unassigned) [Example 3, darolutamide] and report it.
Result: 0.162

Request: Look up Concentration of Darolutamide in saturated solution of CC(O)c1cc(C(=O)N[C@@H](C)Cn2ccc(-c3ccc(C#N)c(Cl)c3)n2)[nH]n1 (some centres unmarked) [Comparative example 1a, darolutamide] and report it.
Result: 0.020

Request: Look up Concentration of Darolutamide in saturated solution of CC(O)c1cc(C(=O)N[C@@H](C)Cn2ccc(-c3ccc(C#N)c(Cl)c3)n2)[nH]n1 (single isomer, unassigned) [Example 5, darolutamide] and report it.
Result: 0.128

* * *

Field: Specific Surface Area (SSA) Multi-point BET. Provide a value for each of the molecules that follow.
Experiment Notes: Determination of specific surface area (SSA), multi-point nitrogen adsorption BET
Format: physicochemical
Measurement Setup: samples vacuum dried overnight at 45° C.; relative pressure 0.05-0.3 p/p0; eleven linear points
Lab book: enter the figure in m^2/g, no units written.

Request: Look up Specific Surface Area (SSA) Multi-point BET of CC(O)c1cc(C(=O)N[C@@H](C)Cn2ccc(-c3ccc(C#N)c(Cl)c3)n2)[nH]n1 (some centres unmarked) [Example 24, darolutamide] and report it.
Result: 43.8

Request: Look up Specific Surface Area (SSA) Multi-point BET of CC(O)c1cc(C(=O)N[C@@H](C)Cn2ccc(-c3ccc(C#N)c(Cl)c3)n2)[nH]n1 (some centres unmarked) [Example 23, darolutamide] and report it.
Result: 46.0

Request: Look up Specific Surface Area (SSA) Multi-point BET of CC(O)c1cc(C(=O)N[C@@H](C)Cn2ccc(-c3ccc(C#N)c(Cl)c3)n2)[nH]n1 (some centres unmarked) [Comparative example 1c, darolutamide] and report it.
Result: 34.4

Request: Look up Specific Surface Area (SSA) Multi-point BET of CC(O)c1cc(C(=O)N[C@@H](C)Cn2ccc(-c3ccc(C#N)c(Cl)c3)n2)[nH]n1 (some centres unmarked) [Example 11, darolutamide] and report it.
Result: 66.6

Request: Look up Specific Surface Area (SSA) Multi-point BET of CC(O)c1cc(C(=O)N[C@@H](C)Cn2ccc(-c3ccc(C#N)c(Cl)c3)n2)[nH]n1 (some centres unmarked) [Comparative example 1b, darolutamide] and report it.
Result: 29.5

* * *

Field: Concentration of Darolutamide in saturated solution. Provide a value for each of the compounds that follow.
Measurement Setup: 10 min, pH 7.5
Lab book: enter the figure in µg/mL, no units written.

Request: Look up Concentration of Darolutamide in saturated solution of CC(O)c1cc(C(=O)N[C@@H](C)Cn2ccc(-c3ccc(C#N)c(Cl)c3)n2)[nH]n1 (single isomer, unassigned) [Example 5, darolutamide] and report it.
Result: 132

Request: Look up Concentration of Darolutamide in saturated solution of CC(O)c1cc(C(=O)N[C@@H](C)Cn2ccc(-c3ccc(C#N)c(Cl)c3)n2)[nH]n1 (single isomer, unassigned) [Example 3, darolutamide] and report it.
Result: 155

Request: Look up Concentration of Darolutamide in saturated solution of CC(O)c1cc(C(=O)N[C@@H](C)Cn2ccc(-c3ccc(C#N)c(Cl)c3)n2)[nH]n1 (some centres unmarked) [Comparative example 2, darolutamide] and report it.
Result: 18

Request: Look up Concentration of Darolutamide in saturated solution of CC(O)c1cc(C(=O)N[C@@H](C)Cn2ccc(-c3ccc(C#N)c(Cl)c3)n2)[nH]n1 (some centres unmarked) [Comparative example 1a, darolutamide] and report it.
Result: 21

Request: Look up Concentration of Darolutamide in saturated solution of CC(O)c1cc(C(=O)N[C@@H](C)Cn2ccc(-c3ccc(C#N)c(Cl)c3)n2)[nH]n1 (single isomer, unassigned) [Example 4, darolutamide] and report it.
Result: 149
